target or system: Ca^2+/CaM-N (Homo sapiens, UniProt P0DP23)
Construct: ^15N-labled samples of the isolated Ca^2+/CaM-N and Ca^2+/CaM-C domains; made in house
test: NMR titration (2D 1H-15N HSQC) of isolated N-terminal lobe
Format: binding
test context: NMR HSQC titration, one-site model, 35°C, 50 mM Tris-d11 (pH 7.0), 100 mM NaCl, 5 mM CaCl2; 15N-Ca^2+/CaM-N 150 μM
Where no end group is shown, it is not given here.
observable: Kd

Lookup: Kd / Ca^2+/CaM-N (Homo sapiens, UniProt P0DP23) / SDVDLSKYITTIAGVMTLSQVKGFVRKNGVN [Fas-Pep1]
~268 µM

Values from paper PMC4703387
